The reported numbers originate from a melting point compilation (Tetko et al.; mined from patent text by program, amines drawn as free bases though some values may be those of a salt).

# Lookup of reported melting point keyed by entry

Some entries whose results are on file:
O=C(O)C[C@H]1CCCC[C@H]1n1nc(-c2c(-c3ccccc3)nn3ccccc23)ccc1=O (relative stereo); 238 to 240 °C
CCOC(=O)c1cc2ccnc(N(Cc3ccccc3)Cc3ccccc3)c2[nH]1; 120 to 123 °C
CCOc1ccc2[nH]c(=O)n(C3CCCC3)c2c1; 75 °C
Nc1ncc(C#Cc2ccc(Cl)cc2)c(Oc2ccc(O)cc2)n1; 250 to 251 °C

Kindly review the next molecule as well.
Input: Please give the measured melting point for this molecule: COc1ccc(S(=O)(=O)N(CCC(F)(F)C(F)F)c2ccccc2/C=C/c2ccncc2)cc1
Output: 124 to 126 °C

###

# Lookup of reported melting point keyed by entry

Cn1cncc1C(O)(c1ccc(F)cc1)c1ccc2c(c1)c(-c1cccc(Cl)c1)nc1nnnn12 (stereo unspecified); 200 °C
O=C1Nc2ccc([N+](=O)[O-])cc2/C1=C(/Nc1ccc(CN2CCCC2)cc1)c1ccccc1; 45 to 50 °C
CCOC(=O)c1nc(-c2ccncc2)[nH]c1-c1ccc(C)cc1; 182 to 185 °C
OCc1nc(/C=C/c2ccccc2)ns1; 119 to 120 °C
O=S1(=O)c2cccc3cccc(c23)N1CCCN1CC=C(c2ccccc2)CC1; 88 °C
Cc1n[nH]c(C)c1C(=O)Nc1ccccc1; 244 to 245 °C
CC(C)Oc1nsc(NC(=O)C(C)C)c1C#N; 224 °C
COC(=O)CCON1C(C)(C)CC(OC(=O)c2ccccc2C(=O)OC2CC(C)(C)N(OCCC(=O)OC)C(C)(C)C2)CC1(C)C; 117 to 118 °C

Input: Please give the measured melting point for this compound: CC(C)OC(=O)C(C(=O)Nc1ccccc1)=C1SCS1
Output: 115 to 116 °C

Input: Please give the measured melting point for this compound: COc1ccc(C(C)(C)C)c(O)c1C(=O)Nc1ccc(S(=O)(=O)C(F)(F)F)cc1Cl
Output: 198 to 199 °C

Input: Please give the measured melting point for this compound: Cn1cc(S(=O)(=O)NC(C)(C)C)c(=O)n(C)c1=O
Output: 143 to 144 °C

###

endpoint.name: melting point

Some entries whose results are on file:
CCOC(=O)C1=C(C)NC(C)=C(C(=O)OCCN2CCN(C(c3ccc(C)cc3)c3ccc(C)cc3)CC2)C1c1cccc([N+](=O)[O-])c1 (centres undefined); 82 to 85 °C
CCOC(=O)c1ccc(N(C)C)cc1C(=O)OCC; 62 to 64 °C
COc1ccc(N2C[C@](C)(COc3ccc(C#N)cc3)OC2=O)cc1; 147 to 149 °C

Input: Please give the measured melting point for this compound: Cc1c(Cc2ccc(C(C)C)cc2)c2c(c(C)c1NC(=O)CC(C)(C)C)C(C)CO2 (centres undefined)
Output: 185 to 186 °C

###

endpoint.name: melting point

Some entries whose results are on file:
O=C(c1ccncc1)c1cccc(NC(=O)c2ccn3c2CSC3c2cccnc2)c1 (stereo unspecified); 186 °C
COc1cc2c(cc1OC)C1CC(=O)C3CCCC3N1CC2 (stereo unspecified); 105 to 114 °C
COC(=O)c1sc2cc([N+](=O)[O-])ccc2c1N; 169 to 170 °C

Input: Please give the measured melting point for this compound: CN(C)C1CCc2oc3ccc([N+](=O)[O-])cc3c2C1 (stereo unspecified)
Output: 88 to 89 °C

Input: Please give the measured melting point for this compound: COc1ccc(S(=O)(=O)n2ccc3ccnc(-c4ccc(C(F)(F)F)cc4)c32)cc1
Output: 143 to 145 °C

Input: Please give the measured melting point for this compound: COC(=O)CCCc1cc2nc(OC)ccc2n1S(=O)(=O)c1ccccc1
Output: 113 to 114 °C

###

# Lookup of reported melting point keyed by entry

CC(=O)c1sc(-c2ccc(-c3ccccc3)cc2)nc1C; 124 to 125 °C
CCN(C)C(=O)C1=CC(C)(C)Oc2ccc([N+](=O)[O-])cc21; 121 to 124 °C
CCN(CC)CCCC1CCCN(C(=O)N2c3ccccc3NC(=O)c3cccnc32)C1 (configuration not stated); 123 to 125 °C
FC(F)(F)c1cccc(C(Cl)=Nc2nc(C(F)(F)F)c(I)s2)c1; 136 to 137 °C
CNc1c([N+](=O)[O-])ccc(Cl)c1C#N; 167 to 170 °C

Input: Please give the measured melting point for this compound: CCOc1nc(C(=O)O)ccc1CN
Output: 226 to 228 °C

Input: Please give the measured melting point for this compound: Cc1ccc(Cn2c(C)cc(C)c(C#N)c2=O)cc1
Output: 178 to 181 °C

Input: Please give the measured melting point for this compound: CC1CC(=O)c2cc(O)cnc2C1 (configuration not stated)
Output: 210 to 212 °C

Input: Please give the measured melting point for this compound: Cc1c(C(=O)OC(C)C)sc(C(=O)OC(C)C)c1O
Output: 87 to 89 °C

Input: Please give the measured melting point for this compound: CC(C)(C)OC(=O)N1CCC(Nc2cccc(NC(=O)c3ccc(F)cc3)n2)CC1
Output: 82.7 °C

###

# Lookup of reported melting point keyed by entry

CCc1coc(=O)n1C(=O)c1ccccc1Cl; 110 to 112 °C
CCCCc1cc2cn(C3CCCC3)c(=O)nc2o1; 130 to 131 °C

Input: Please give the measured melting point for this compound: CC(C)COC[C@H](CC(C)C)NC(=O)[C@H]1O[C@@H]1C(=O)OC(C)C
Output: 36 to 38 °C

Input: Please give the measured melting point for this compound: Cc1cc(-c2cccc(C3=Nc4ccc(-n5cccc5)cc4NC(=O)C3)c2)ccn1
Output: 206 °C

Input: Please give the measured melting point for this compound: CCN1c2ncc(COc3ccccc3O)cc2C(=O)N(C)c2ccc(Cl)nc21
Output: 172 to 173 °C

Input: Please give the measured melting point for this compound: N#CCCc1coc2ccc(Br)cc12
Output: 56 to 58 °C

Input: Please give the measured melting point for this compound: O=C(O)c1cccc(C(CCc2ccc(Cl)cc2)CC(=O)c2ccccc2)c1 (configuration not stated)
Output: 93 to 95 °C

###

# Lookup of reported melting point keyed by entry

Some entries whose results are on file:
CCOC(=O)C(C)=NNc1ccc(Cl)cc1Cl; 118 to 120 °C
O=C(Nc1ccc(C2=CCN(C(=O)Nc3ccc(OCCO)cc3Cl)CC2)cc1)Nc1ccccc1F; 173 to 178 °C
CCOC(=O)CCCNc1ccccc1-c1ccccc1; 60 to 62 °C
COc1ccccc1N1CCN(c2cc3nc(C(=O)O)c(=O)[nH]c3cc2[N+](=O)[O-])CC1; 204 to 206 °C
C=CCN1CCNC(=O)c2cccc([N+](=O)[O-])c21; 80 to 82 °C

Input: Please give the measured melting point for this compound: Cc1nc(Cn2nc(C(F)(F)F)cc2C(F)(F)F)ccc1NC(=O)c1cccc(Cl)c1C(=O)N[C@@H](C)CS(C)=O (some centres not stated)
Output: 183 °C

Input: Please give the measured melting point for this compound: CC(=O)n1c(Br)cc(-c2ccc(F)cc2)c1-c1ccc(S(C)(=O)=O)cc1
Output: 121 to 125 °C

###

# Lookup of reported melting point keyed by entry

Some entries whose results are on file:
CC[C@@H](NC(=O)CCCCl)C(N)=O; 118 to 123 °C
COC(=O)COc1ccc(Cn2c(-c3ccc(OC4CCCC4)cc3)c(C)c3cc(OCc4ccccc4)ccc32)cc1; 96 to 98 °C
COc1ccc(S(=O)(=O)N2CSCC2=O)cc1; 129 to 130 °C

Input: Please give the measured melting point for this compound: COC(=O)c1ccc(C(C)(C)CO)cc1
Output: 44 to 45 °C

Input: Please give the measured melting point for this compound: O=C(NCc1cccnc1)c1ccnc(N2CCN(Cc3ccc(F)cc3)C2=O)c1
Output: 153 to 155 °C

Input: Please give the measured melting point for this compound: CN(C)C(=O)Nc1cccc(-c2nc(=O)c3ccccc3s2)n1
Output: 230 °C

Input: Please give the measured melting point for this compound: CCN(CC)CCOc1ccc(CNC(=O)C#Cc2ccc(C)cc2Cl)cc1
Output: 135 to 138 °C

Input: Please give the measured melting point for this compound: COc1ccc(CC(=O)c2ccccc2)cc1OC
Output: 80 to 81 °C

Input: Please give the measured melting point for this compound: COC(=O)C(c1ccc(Br)cc1)(c1ccc(Br)cc1)c1ncc[nH]1
Output: 135 °C

###

# Lookup of reported melting point keyed by entry

Some entries whose results are on file:
Cc1ncsc1C(O)c1cccc(N)c1 (stereo not drawn); 137 to 138 °C
CCCCc1nc(Cl)c(CO)n1Cc1ccc(-c2cccc(C(=O)OC)c2)cc1; 162 to 163 °C
Cn1c(CC#N)ccc1C(=O)c1ccc(N)cc1; 137 to 142 °C
CCOC(=O)CCCCc1cccc(-c2nc(=O)c3ccccc3s2)n1; 87 to 88 °C
CCNC(=O)ON(C(=O)CC)C(=O)NCC; 104 to 106 °C
COC(=O)C1Cc2cncn2C(=O)N1 (stereo not drawn); 159 to 164 °C
CS(=O)(=O)c1ccc(-c2cc(CO)nn2C2CCCCCC2)cc1; 116 to 118 °C
CCCc1nccn1-c1nc(-c2ccc(Cl)cc2)c(CCCOc2ccccc2OC)o1; 89 to 90 °C
O=C(O)C1CCC2CCCCC2N1 (stereo not drawn); 173 to 176 °C
CN(c1ccc(Cl)cc1)C1CCN(C2CCN(c3ccc(OC[C@@]4(C)Cn5cc([N+](=O)[O-])nc5O4)cc3)CC2)CC1; 231 to 232 °C

Input: Please give the measured melting point for this molecule: CC(C)(C)OC(=O)CCNC(=O)c1ccc2c(Cl)cnc(Cl)c2c1
Output: 131 to 133 °C

Input: Please give the measured melting point for this molecule: NC(=O)c1c(N2CCN(Cc3ccccc3)CC2)nn2c(-c3ccncc3)ccnc12
Output: 205 to 206 °C

Input: Please give the measured melting point for this molecule: CC(C)(C)OC(=O)NCc1nc2c(C(F)(F)F)cccc2c(=O)o1
Output: 176 °C
